molecular target: HRgpA-6H (Porphyromonas gingivalis) (UniProt P28784); assay: ELISA, coated HRgpA-6H
Assay Endpoint: OD450 nm
One number for each entry.

>>> meas_value("KB001 mouse Fab VH Y106N (Fab, V domains shown) VH: EVQLKQSGPGLVAPSQSLSITCTVSGFSLSIYSVHWVRQPPGKGLEWLGMIWGGGSSDYNSALKSRLSISKDNSKSQVFLKMNSLQTDDTAMYYCARNGNFYAMDNWGQGTSVTVSS VL: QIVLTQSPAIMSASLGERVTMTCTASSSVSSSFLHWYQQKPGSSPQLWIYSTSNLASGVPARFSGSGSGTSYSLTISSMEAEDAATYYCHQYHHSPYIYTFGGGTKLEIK")
0.792

Let's switch to this binder now.
Sample KB001 mouse Fab VL T100F (Fab, V domains shown) VH: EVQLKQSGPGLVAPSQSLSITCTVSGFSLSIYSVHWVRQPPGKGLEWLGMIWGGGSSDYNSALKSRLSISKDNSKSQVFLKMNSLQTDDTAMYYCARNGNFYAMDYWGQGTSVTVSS VL: QIVLTQSPAIMSASLGERVTMTCTASSSVSSSFLHWYQQKPGSSPQLWIYSTSNLASGVPARFSGSGSGTSYSLTISSMEAEDAATYYCHQYHHSPYIYFFGGGTKLEIK — what was its OD450 nm?
0.552
